Reference source: ChEMBL document CHEMBL1129901

target: Endothelin-1 receptor (Homo sapiens, UniProt P25101)
Sequence (P25101 whole entry): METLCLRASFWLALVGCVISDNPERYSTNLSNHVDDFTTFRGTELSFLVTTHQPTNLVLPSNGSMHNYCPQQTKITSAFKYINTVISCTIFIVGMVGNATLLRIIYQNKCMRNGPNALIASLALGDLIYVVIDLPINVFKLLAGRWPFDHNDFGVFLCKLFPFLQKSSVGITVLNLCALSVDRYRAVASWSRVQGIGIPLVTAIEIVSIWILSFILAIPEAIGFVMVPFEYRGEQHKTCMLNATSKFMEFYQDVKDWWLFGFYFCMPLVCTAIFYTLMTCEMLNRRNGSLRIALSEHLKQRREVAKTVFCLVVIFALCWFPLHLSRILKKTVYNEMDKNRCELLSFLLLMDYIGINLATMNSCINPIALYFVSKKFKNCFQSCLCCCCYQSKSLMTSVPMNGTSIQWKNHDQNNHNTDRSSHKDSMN
assay.explanation: Inhibitory of human Endothelin A receptor by using I-ET-1 as radioligand in a competitive radioligand assay
Hi! Just check whether IC50 is below 200 nM. Below gives Fulfilled, equal or above gives Not fulfilled.

>>> cat("Cc1cc(C)c(CCc2ccsc2S(=O)(=O)Nc2onc(C)c2Br)c(C)c1")
"Fulfilled"
>>> cat("Cc1noc(NS(=O)(=O)c2sccc2/C=C/c2ccc3c(c2)OCO3)c1Br")
"Not fulfilled"
>>> cat("Cc1cc2c(cc1/C=C/c1sccc1S(=O)(=O)Nc1onc(C)c1Br)OCO2")
"Fulfilled"

Query: Find out if reported IC50 for `Cc1cc2c(cc1CCc1sccc1S(=O)(=O)Nc1onc(C)c1Br)OCO2` is less than 200 nM
Result: Fulfilled

---

target: UniProt P24530
Sequence (P24530 whole entry): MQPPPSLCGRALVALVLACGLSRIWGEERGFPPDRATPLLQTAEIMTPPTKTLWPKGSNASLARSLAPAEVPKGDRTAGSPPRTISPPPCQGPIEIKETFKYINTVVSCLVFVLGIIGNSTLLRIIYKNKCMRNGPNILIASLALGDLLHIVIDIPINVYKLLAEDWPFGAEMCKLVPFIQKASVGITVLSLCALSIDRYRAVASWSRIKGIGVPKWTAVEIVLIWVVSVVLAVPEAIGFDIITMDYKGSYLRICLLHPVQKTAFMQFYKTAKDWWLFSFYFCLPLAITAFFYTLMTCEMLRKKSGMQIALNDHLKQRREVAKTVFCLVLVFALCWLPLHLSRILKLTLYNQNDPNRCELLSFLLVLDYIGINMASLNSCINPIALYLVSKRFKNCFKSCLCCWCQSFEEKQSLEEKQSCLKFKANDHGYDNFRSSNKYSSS
assay.explanation: Inhibition of human Endothelin B receptor using I-ET-1 as radioligand in a competitive radioligand assay
readout.type: pIC50
Reminder that pIC50 means the negative base-10 logarithm of the concentration expressed in mol/L.

Record excerpt, results attached:
>>> value("Cc1ccc(CCc2sccc2S(=O)(=O)Nc2onc(C)c2Br)cc1")
4.93
>>> value("Cc1ccc(/C=C/c2sccc2S(=O)(=O)Nc2onc(C)c2Br)cc1")
5.38
>>> value("Cc1noc(NS(=O)(=O)c2ccsc2CCc2ccc3c(c2)OCO3)c1Br")
5.03
>>> value("Cc1noc(NS(=O)(=O)c2sccc2CCc2ccc3c(c2)OCO3)c1Br")
4.75
>>> value("Cc1cc2c(cc1/C=C/c1sccc1S(=O)(=O)Nc1onc(C)c1Br)OCO2")
5.48

Query: Which pIC50 is reported for this molecule? `Cc1cc2c(cc1CCc1sccc1S(=O)(=O)Nc1onc(C)c1Br)OCO2`
Result: 5.05

Query: Query (molecule): `Cc1ccc(/C=C/c2sccc2S(=O)(=O)Nc2onc(C)c2Br)c(C)c1` ; field requested: pIC50
Result: 5.53

Query: Entry `Cc1cc(C)c(/C=C/c2sccc2S(=O)(=O)Nc2onc(C)c2Br)c(C)c1` : reported pIC50 = ?
Result: 5.70

Query: I'd like to know its pIC50. The molecule in question is `Cc1cc2c(cc1CCc1ccsc1S(=O)(=O)Nc1onc(C)c1Br)OCO2`
Result: 4.90

Query: Recorded pIC50 for `Cc1noc(NS(=O)(=O)c2sccc2/C=C/c2ccc3c(c2)OCO3)c1Br` , please?
Result: 5.00

Query: Look at this molecule and give its reported pIC50. `Cc1noc(NS(=O)(=O)c2sccc2/C=C/c2cc3c(cc2CO)OCO3)c1Br`
Result: 5.49

Query: Dear colleague, I am looking for the recorded pIC50 of the following molecule: `Cc1ccc(/C=C/c2ccsc2S(=O)(=O)Nc2onc(C)c2Br)c(C)c1`
Result: 5.53
